Data provenance: patent US10875860B2

List of IC50 values.
# ASSAY SYSTEM: recombinant human TDP2 (Homo sapiens, UniProt O95551)
# Sequence (O95551 whole entry): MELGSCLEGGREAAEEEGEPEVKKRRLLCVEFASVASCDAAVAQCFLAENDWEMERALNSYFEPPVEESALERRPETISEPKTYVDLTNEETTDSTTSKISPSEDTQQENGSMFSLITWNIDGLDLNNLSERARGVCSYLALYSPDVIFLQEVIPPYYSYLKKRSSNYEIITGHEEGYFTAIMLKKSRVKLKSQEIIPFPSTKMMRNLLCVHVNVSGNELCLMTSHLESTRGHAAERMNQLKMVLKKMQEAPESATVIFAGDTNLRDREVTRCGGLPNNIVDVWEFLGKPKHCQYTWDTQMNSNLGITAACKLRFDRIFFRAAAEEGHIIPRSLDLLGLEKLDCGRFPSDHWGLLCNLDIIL
# TEST METHOD NOTES: Recombinant Tdp2 assay
# Format: biochemical
# SETUP CONDITIONS: semiquantitative scale, in duplicate; Table 1; read-out: Enzyme Inhibitory Activity Tdp2

Below, 3 compounds whose answers are already recorded.
> print(dat)
                                   compound  observed.value
1  CNCCCn1c2c(c3ccc([N+](=O)[O-])cc3c1=O)C(=O)c1cc(OC)cnc1-2    37 to 111 µM
2  COc1cnc2c(c1)C(=O)c1c-2n(CCCN2CCN(C)CC2)c(=O)c2cc([N+](=O)[O-])ccc12     12 to 37 µM
3  COc1cnc2c(c1)C(=O)c1c-2n(CCCN2CCN(CCO)CC2)c(=O)c2cc([N+](=O)[O-])ccc12        > 111 µM

Return IC50 measured with recombinant human TDP2 (Homo sapiens, UniProt O95551) given this compound: COc1cnc2c(c1)C(=O)c1c-2n(CCCN2CCC(N)CC2)c(=O)c2cc([N+](=O)[O-])ccc12
1 to 12 µM

Return IC50 measured with recombinant human TDP2 (Homo sapiens, UniProt O95551) given this compound: COc1cnc2c(c1)C(=O)c1c-2n(CCCNC(C)C)c(=O)c2cc([N+](=O)[O-])ccc12
37 to 111 µM

Return IC50 measured with recombinant human TDP2 (Homo sapiens, UniProt O95551) given this compound: COc1cnc2c(c1)C(=O)c1c-2n(CCCNC2=NCCS2)c(=O)c2cc([N+](=O)[O-])ccc12
12 to 37 µM

Return IC50 measured with recombinant human TDP2 (Homo sapiens, UniProt O95551) given this compound: COc1cnc2c(c1)C(=O)c1c-2n(CCCN2CCCC2)c(=O)c2cc([N+](=O)[O-])ccc12
37 to 111 µM

Return IC50 measured with recombinant human TDP2 (Homo sapiens, UniProt O95551) given this compound: COc1cnc2c(c1)C(=O)c1c-2n(CCCNCCN2CCOCC2)c(=O)c2cc([N+](=O)[O-])ccc12
37 to 111 µM

Return IC50 measured with recombinant human TDP2 (Homo sapiens, UniProt O95551) given this compound: COc1cnc2c(c1)C(=O)c1c-2n(CCCBr)c(=O)c2cc([N+](=O)[O-])ccc12
37 to 111 µM

----------
# ASSAY SYSTEM: Tdp1 (Homo sapiens, UniProt Q9NUW8)
# Sequence (Q9NUW8 whole entry): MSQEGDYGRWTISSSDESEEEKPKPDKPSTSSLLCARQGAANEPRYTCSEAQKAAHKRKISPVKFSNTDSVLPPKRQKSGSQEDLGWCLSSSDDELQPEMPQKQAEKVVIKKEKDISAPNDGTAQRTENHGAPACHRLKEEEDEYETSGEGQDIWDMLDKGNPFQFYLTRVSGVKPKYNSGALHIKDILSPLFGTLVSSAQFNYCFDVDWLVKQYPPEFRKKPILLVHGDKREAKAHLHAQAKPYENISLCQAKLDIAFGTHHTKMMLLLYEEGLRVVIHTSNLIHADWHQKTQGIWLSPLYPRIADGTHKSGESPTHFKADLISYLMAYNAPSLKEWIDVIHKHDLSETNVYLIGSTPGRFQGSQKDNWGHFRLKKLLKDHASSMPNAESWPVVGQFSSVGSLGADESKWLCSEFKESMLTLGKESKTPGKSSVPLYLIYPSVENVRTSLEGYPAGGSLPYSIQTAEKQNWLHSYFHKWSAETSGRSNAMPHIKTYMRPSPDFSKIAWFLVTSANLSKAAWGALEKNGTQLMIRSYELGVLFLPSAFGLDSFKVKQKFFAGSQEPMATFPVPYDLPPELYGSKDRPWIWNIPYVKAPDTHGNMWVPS
# TEST METHOD NOTES: Recombinant Tdp1 assay
# Format: biochemical
# SETUP CONDITIONS: determined in duplicate; Table 2; read-out: Enzyme Inhibitory Activity Tdp1 (IC50)
MEASUREMENT LABEL: IC50

Below, 5 compounds whose answers are already recorded.
> print(dat)
                                   compound  observed.value
1  COc1cnc2c(c1)C(=O)c1c-2n(CCCn2ccnc2)c(=O)c2cc(Cl)ccc12 [Compound 16b]        > 111 µM
2  COc1cnc2c(c1)C(=O)c1c-2n(CCCNC2=NCCS2)c(=O)c2cc(F)ccc12 [Compound 17c]        > 111 µM
3  COc1cnc2c(c1)C(=O)c1c-2n(CCCN2CCOCC2)c(=O)c2cc(Cl)ccc12 [Compound 16a]        > 111 µM
4  CNCCCn1c2c(c3ccc(Cl)cc3c1=O)C(=O)c1cc(OC)cnc1-2 [Compound 16g]           16 µM
5  COc1cnc2c(c1)C(=O)c1c-2n(CCCN2CCC(O)CC2)c(=O)c2cc(F)ccc12 [Compound 17d]        > 111 µM

Return IC50 measured with Tdp1 (Homo sapiens, UniProt Q9NUW8) given this compound: CNCCCn1c2c(c3ccc(F)cc3c1=O)C(=O)c1cc(OC)cnc1-2 [Compound 17g]
> 111 µM

Return IC50 measured with Tdp1 (Homo sapiens, UniProt Q9NUW8) given this compound: COc1cnc2c(c1)C(=O)c1c-2n(CCCN2CCNCC2)c(=O)c2cc(F)ccc12 [Compound 17e]
> 111 µM

Return IC50 measured with Tdp1 (Homo sapiens, UniProt Q9NUW8) given this compound: COc1cnc2c(c1)C(=O)c1c-2n(CCCN2CCC(O)CC2)c(=O)c2cc(Cl)ccc12 [Compound 16d]
14 µM

Return IC50 measured with Tdp1 (Homo sapiens, UniProt Q9NUW8) given this compound: COc1cnc2c(c1)C(=O)c1c-2n(CCCNC(C)C)c(=O)c2cc(F)ccc12 [Compound 17f]
> 111 µM

----------
# ASSAY SYSTEM: Top1 (Homo sapiens, UniProt P11387)
# TEST METHOD NOTES: Top1-mediated DNA cleavage assay
# Format: biochemical
# SETUP CONDITIONS: DNA cleavage relative to 1 μM MJ-III-65 (19) and 1 μM camptothecin (18); Table 2
MEASUREMENT LABEL: Enzyme Inhibitory Activity Top1

> print(dat)
                                   compound                measurement.label  observed.value
1  COc1cnc2c(c1)C(=O)c1c-2n(CCCN2CCCC2)c(=O)c2cc(F)ccc12 [Compound 17i]  Enzyme Inhibitory Activity Top1             +++
2  COc1cnc2c(c1)C(=O)c1c-2n(CCCN2CCC(O)CC2)c(=O)c2cc(Cl)ccc12 [Compound 16d]  Enzyme Inhibitory Activity Top1            ++++
3  COc1cnc2c(c1)C(=O)c1c-2n(CCCN2CCNCC2)c(=O)c2cc(F)ccc12 [Compound 17e]  Enzyme Inhibitory Activity Top1               +
4  COc1cnc2c(c1)C(=O)c1c-2n(CCCNC(C)C)c(=O)c2cc(F)ccc12 [Compound 17f]  Enzyme Inhibitory Activity Top1              ++

----------
# ASSAY SYSTEM: Top1 (Homo sapiens, UniProt P11387)
# Sequence (P11387 1-765): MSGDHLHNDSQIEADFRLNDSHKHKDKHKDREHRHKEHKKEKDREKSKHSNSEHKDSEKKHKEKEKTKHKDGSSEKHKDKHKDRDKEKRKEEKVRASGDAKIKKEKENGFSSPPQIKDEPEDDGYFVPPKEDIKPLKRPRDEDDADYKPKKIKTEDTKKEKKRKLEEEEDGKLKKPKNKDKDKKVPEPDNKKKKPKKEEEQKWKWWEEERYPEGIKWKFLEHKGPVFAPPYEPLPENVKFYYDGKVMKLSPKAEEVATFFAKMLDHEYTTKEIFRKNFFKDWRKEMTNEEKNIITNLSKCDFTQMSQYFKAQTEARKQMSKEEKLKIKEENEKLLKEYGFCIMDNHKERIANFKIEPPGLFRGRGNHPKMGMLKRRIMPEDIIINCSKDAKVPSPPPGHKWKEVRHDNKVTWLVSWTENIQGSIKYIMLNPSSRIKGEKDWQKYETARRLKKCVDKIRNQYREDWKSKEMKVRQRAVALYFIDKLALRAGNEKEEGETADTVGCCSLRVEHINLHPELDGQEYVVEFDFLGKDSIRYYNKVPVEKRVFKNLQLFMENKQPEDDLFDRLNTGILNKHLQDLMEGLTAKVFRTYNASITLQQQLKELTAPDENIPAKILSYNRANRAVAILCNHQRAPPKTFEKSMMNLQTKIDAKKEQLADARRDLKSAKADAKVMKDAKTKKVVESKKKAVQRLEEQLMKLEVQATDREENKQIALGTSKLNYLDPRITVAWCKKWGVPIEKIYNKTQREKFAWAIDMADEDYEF
# TEST METHOD NOTES: Top1-mediated DNA cleavage assay
# Format: biochemical
# SETUP CONDITIONS: DNA cleavage relative to 1 μM MJ-III-65 (19) and 1 μM camptothecin (18); Table 2
MEASUREMENT LABEL: Enzyme Inhibitory Activity Top1

> print(dat)
                                    compound  observed.value
 1  COc1cnc2c(c1)C(=O)c1c-2n(CCCn2ccnc2)c(=O)c2cc(F)ccc12 [Compound 17b]             +++
 2  COc1cnc2c(c1)C(=O)c1c-2n(CCCNC2=NCCS2)c(=O)c2cc(F)ccc12 [Compound 17c]              ++
 3  CNCCCn1c2c(c3ccc(F)cc3c1=O)C(=O)c1cc(OC)cnc1-2 [Compound 17g]               +
 4  COc1cnc2c(c1)C(=O)c1c-2n(CCCN2CCNCC2)c(=O)c2cc(Cl)ccc12 [Compound 16e]               +
 5  CCNCCCn1c2c(c3ccc(F)cc3c1=O)C(=O)c1cc(OC)cnc1-2 [Compound 17h]              ++
 6  COc1cnc2c(c1)C(=O)c1c-2n(CCCN2CCOCC2)c(=O)c2cc(Cl)ccc12 [Compound 16a]             +++
 7  COc1cnc2c(c1)C(=O)c1c-2n(CCCNC2=NCCS2)c(=O)c2cc(Cl)ccc12 [Compound 16c]              ++
 8  COc1cnc2c(c1)C(=O)c1c-2n(CCCN2CCC(O)CC2)c(=O)c2cc(F)ccc12 [Compound 17d]               +
 9  COc1cnc2c(c1)C(=O)c1c-2n(CCCN2CCN(C)CC2)c(=O)c2cc(Cl)ccc12 [Compound 16j]               +
10  COc1cnc2c(c1)C(=O)c1c-2n(CCCn2ccnc2)c(=O)c2cc(Cl)ccc12 [Compound 16b]             +++

Return Enzyme Inhibitory Activity Top1 measured with Top1 (Homo sapiens, UniProt P11387) given this compound: COc1cnc2c(c1)C(=O)c1c-2n(CCCN2CCOCC2)c(=O)c2cc(F)ccc12 [Compound 17a]
+++

Return Enzyme Inhibitory Activity Top1 measured with Top1 (Homo sapiens, UniProt P11387) given this compound: COc1cnc2c(c1)C(=O)c1c-2n(CCCNC(C)C)c(=O)c2cc(Cl)ccc12 [Compound 16f]
++
